// values below are reported binding signal
- system: T1, RBFOX1 RRM RbFoxmut (Fox-RRM*) (Homo sapiens, UniProt Q9NWB1 109-208, R118D;E147R;N151S;E152T)
- T1 sequence: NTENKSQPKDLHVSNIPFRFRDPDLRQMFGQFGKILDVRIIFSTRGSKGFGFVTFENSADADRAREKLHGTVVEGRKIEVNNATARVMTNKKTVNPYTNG
- experimental.details: EMSA; HiTS-Eq, 1 nM pool, 10 min; buffer printed only for the single-RNA assays: 10 mM Tris pH 7.5, 150 mM NaCl, 3.4 mM EDTA, 0.001% NP-40, 30 C
- particulars: tags: His6 N-terminal (pET28a); label: 5' 32P
In all, about 16,000 sequences were measured (“ka relative to ugcaugu”: median about 0.096, highest 2% from about 0.35 on). The entries come from a sample that favours the highest values as a whole.

[[record]]
binder = "UGUCUUC (DNA:RNA) RNA: GGGAGACCGGAAUUCAGAUUGUCCUGUCUUCUUAAAUCCCGUCGUAGCCACCA DNA 1: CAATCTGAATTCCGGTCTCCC DNA 2: TGGTGGCTACGACGGGATT"
experimental_value = "0.201 KA relative to UGCAUGU"

[[record]]
binder = "CAGGUCU (DNA:RNA) RNA: GGGAGACCGGAAUUCAGAUUGUCCCAGGUCUUUAAAUCCCGUCGUAGCCACCA DNA 1: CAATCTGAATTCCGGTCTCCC DNA 2: TGGTGGCTACGACGGGATT"
experimental_value = "0.0783 KA relative to UGCAUGU"

[[record]]
binder = "CGUUUAU (DNA:RNA) RNA: GGGAGACCGGAAUUCAGAUUGUCCCGUUUAUUUAAAUCCCGUCGUAGCCACCA DNA 1: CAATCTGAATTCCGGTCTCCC DNA 2: TGGTGGCTACGACGGGATT"
experimental_value = "0.147 KA relative to UGCAUGU"


Lab note: next binder to report on.
Exercise: If you can, please state the reported binding signal value of GCAACGU (DNA:RNA) RNA: GGGAGACCGGAAUUCAGAUUGUCCGCAACGUUUAAAUCCCGUCGUAGCCACCA DNA 1: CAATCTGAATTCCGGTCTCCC DNA 2: TGGTGGCTACGACGGGATT .
Solution: 0.094 KA relative to UGCAUGU
